Target: Cbl-b (Homo sapiens (Human))
Experiment: Cbl-b LCK Ub TR-FRET assay (Cbl-b Lck HTRF)
Assay type: biochemical
Settings: Cbl-b and C-Cbl selectivity, Lck HTRF
assay.metric: (fold-selectivity)

- compound: "CC(C)[C@H]1CN(C)CCN1Cc1cc(C(=O)Nc2cccc(C3([C@H](F)c4nncn4C)CC(F)(F)C3)c2)nc(C2CC2)c1"
  observed.measurement: "(1.0x)"
- compound: "Cn1cnnc1[C@@H](F)[C@@]1(c2cccc(NC(=O)c3cccc(C(F)(F)F)n3)c2)CCO1"
  observed.measurement: "(1.0x)"

====

IC50 tested on c-Cbl (Homo sapiens (Human), UniProt P22681): recorded values
Sequence (P22681 47-435): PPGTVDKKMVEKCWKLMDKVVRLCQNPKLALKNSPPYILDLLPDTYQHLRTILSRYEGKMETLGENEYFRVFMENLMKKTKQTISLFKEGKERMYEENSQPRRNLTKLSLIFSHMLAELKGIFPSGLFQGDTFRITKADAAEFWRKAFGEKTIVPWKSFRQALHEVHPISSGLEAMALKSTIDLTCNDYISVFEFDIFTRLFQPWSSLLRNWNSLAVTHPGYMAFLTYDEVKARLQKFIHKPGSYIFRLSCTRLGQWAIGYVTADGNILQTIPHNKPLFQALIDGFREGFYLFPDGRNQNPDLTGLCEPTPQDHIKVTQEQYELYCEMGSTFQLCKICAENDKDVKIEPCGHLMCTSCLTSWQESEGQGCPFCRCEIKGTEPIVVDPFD
assay.metric: IC50 (nM)

- molecule: "CC(C)[C@H]1CN(C)CCN1Cc1cc(C(=O)Nc2cccc(C3(Cc4nncn4C)CC(F)(F)C3)c2)nc(C2CC2)c1"
  u: "nM"
  observed.measurement: 5
- molecule: "Cn1cnnc1[C@@H](F)C(C)(F)c1cccc(NC(=O)c2cc(CN3CC(C)(F)C3)nc(C3CC3)n2)c1 (stereo in doubt) [Compound 46]"
  u: "nM"
  observed.measurement: 800
- molecule: "Cn1cnnc1[C@@H](F)C1(c2cccc(NC(=O)c3cc(CN4CC(C)(F)C4)cc(C4CC4)n3)c2)COC1"
  u: "nM"
  observed.measurement: 60
- molecule: "C[C@@H](c1cc(C(=O)Nc2cccc(C3(Cc4nncn4C)COC3)c2)nc(C(F)(F)F)c1)N1CCC2(CC2)C1"
  u: "nM"
  observed.measurement: 47
- molecule: "Cn1cnnc1[C@H](F)C1(c2cccc(NC(=O)c3cc(CN4CCC5(CC5)C4)cc(C4CC4)n3)c2)COC1"
  u: "nM"
  observed.measurement: 30
- molecule: "CC(C)[C@H]1CN(C)CCN1Cc1cc(C(=O)Nc2cccc(C3([C@@H](F)c4nncn4C)CC(F)(F)C3)c2)nc(C2CC2)c1"
  u: "nM"
  observed.measurement: 8.4

====

Molecular target: Cbl-b (Homo sapiens (Human), UniProt Q13191)
Sequence (Q13191 40-426): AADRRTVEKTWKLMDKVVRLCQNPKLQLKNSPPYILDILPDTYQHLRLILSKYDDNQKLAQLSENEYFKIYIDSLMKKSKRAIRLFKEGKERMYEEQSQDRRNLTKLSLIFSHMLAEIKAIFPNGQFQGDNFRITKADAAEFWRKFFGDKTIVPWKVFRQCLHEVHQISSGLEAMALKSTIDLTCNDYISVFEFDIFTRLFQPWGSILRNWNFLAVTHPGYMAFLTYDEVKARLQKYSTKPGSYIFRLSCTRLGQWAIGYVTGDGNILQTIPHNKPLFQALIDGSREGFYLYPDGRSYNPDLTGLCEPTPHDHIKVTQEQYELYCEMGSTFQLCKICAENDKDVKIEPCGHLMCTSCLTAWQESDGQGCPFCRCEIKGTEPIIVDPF
Test: Cbl-b LCK Ub TR-FRET assay (Cbl-b Lck HTRF)
Format: biochemical
Conditions: Table 4 comparative data; read-out: Lck IC50

- compound: "CC(C)[C@H]1CN(C)CCN1Cc1cc(C(=O)Nc2cccc(C3(Cc4nncn4C)CC(F)(F)C3)c2)nc(C2CC2)c1 [Compound 224]"
  IC50, nM: 7.5

====

Target: c-Cbl (Homo sapiens (Human), UniProt P22681)
assay.metric: IC50 (nM)

- molecule: "Cn1cnnc1[C@H](F)C1(c2cccc(NC(=O)c3cc(CN4CCC5(CC5)C4)nc(C4CC4)n3)c2)COC1"
  u: "nM"
  observed.measurement: 140
- molecule: "Cn1cnnc1[C@@H](F)C(C)(F)c1cccc(NC(=O)c2cc(CN3CC(C)(F)C3)nc(C3CC3)n2)c1 (stereo in doubt) [Compound 45]"
  u: "nM"
  observed.measurement: 16000
- molecule: "CC(C)[C@H]1CN(C)CCN1Cc1cc(C(=O)Nc2cccc(C3([C@@H](F)c4nncn4C)COC3)c2)nc(C2CC2)c1"
  u: "nM"
  observed.measurement: 7

====

Biological target: CYP3A4 (Homo sapiens (Human))
Sequence (P08684 whole entry): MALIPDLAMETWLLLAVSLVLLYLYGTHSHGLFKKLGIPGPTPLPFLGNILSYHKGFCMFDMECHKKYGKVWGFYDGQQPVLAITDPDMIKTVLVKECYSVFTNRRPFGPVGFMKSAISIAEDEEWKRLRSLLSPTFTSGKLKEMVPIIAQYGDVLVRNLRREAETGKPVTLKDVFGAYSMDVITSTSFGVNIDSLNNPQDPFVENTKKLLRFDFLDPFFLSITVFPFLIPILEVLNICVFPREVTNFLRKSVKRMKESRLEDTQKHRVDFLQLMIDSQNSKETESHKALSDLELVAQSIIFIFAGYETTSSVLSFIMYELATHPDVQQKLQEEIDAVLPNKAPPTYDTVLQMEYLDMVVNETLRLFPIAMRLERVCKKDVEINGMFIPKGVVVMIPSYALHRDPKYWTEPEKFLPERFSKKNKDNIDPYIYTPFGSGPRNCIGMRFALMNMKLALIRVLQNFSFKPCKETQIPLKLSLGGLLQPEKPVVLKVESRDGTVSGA
Assay: Reversible CYP inhibition, CYP3A4
Format: in vitro ADME
Conditions: T
pIC50: −log10 of the molar value.

- compound: "CC(C)[C@H]1CN(C)CCN1Cc1cc(C(=O)Nc2cccc(C3(Cc4nncn4C)CC(F)(F)C3)c2)nc(C2CC2)c1"
  pIC50: 5.17
